Biological target: T1, CRIPT (Octopus bimaculoides)
T1 chain: YRQSSV
Experiment: stopped-flow
Metric: pKd
Scale note: pKd = -log10(concentration in M).

Exam item: Specify measured pKd for DLG4 PDZ3 PDZ3 (protein) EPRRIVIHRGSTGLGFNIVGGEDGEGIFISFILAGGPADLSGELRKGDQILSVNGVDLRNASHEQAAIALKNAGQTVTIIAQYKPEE .
Marked response: 5.91

Data credit: paper PMC7782867
